assay: metabolic stability in cryopreserved human hepatocytes; settings: human, hepatocytes
readout: half-life at 0.2 μM (h)
Use h as the unit, but write only the number.

Which half-life at 0.2 μM is reported for this compound? Cc1ncc2n1-c1ccc(Cl)cc1C(c1ccccc1F)=NC2 [Midazolam, reference compound]
1.14

----------
assay: metabolic stability in cryopreserved human hepatocytes; details: human, cryopreserved hepatocytes in suspension
readout: hepatocyte CLint at 1 μM (µL/min/1e6 cells)
Use µL/min/1e6 cells as the unit, but write only the number.

Which hepatocyte CLint at 1 μM is reported for this compound? Cc1cc(Cn2ncc3c(-c4cccc(C#N)c4F)nc(N)nc32)ccc1N [11o]
3.8

----------
assay: metabolic stability in cryopreserved human hepatocytes; conditions: human, cryopreserved hepatocytes in suspension, Extrapolated Clearance, CL, human hepatocytes; 1 μM 11o
readout: CLint scaled at 1 μM (mL/min/kg)
Use mL/min/kg as the unit, but write only the number.

Which CLint scaled at 1 μM is reported for this compound? Cc1cc(Cn2ncc3c(-c4cccc(C#N)c4F)nc(N)nc32)ccc1N [11o]
9.6

----------
assay: pharmacokinetics and brain/plasma ratio in mouse brain; format: in vivo, Crl:CD-1 mice; settings: male, Crl:CD-1, brain/plasma, other: intranasal (IN), placed near the nares; mouse; IN 1, 3 and 10 mg/kg; read-out: B/P ratio, IN dosing groups
readout: Kp

Which Kp is reported for this compound? Cc1cc(Cn2ncc3c(-c4cccc(C#N)c4F)nc(N)nc32)ccc1N [11o]
0.0698 to 0.183

----------
Assay: metabolic stability in cryopreserved rat hepatocytes
Conditions: Sprague Dawley, rat, cryopreserved hepatocytes in suspension
Description: Metabolic stability of 11o was determined in cryopreserved hepatocytes from mice, rats, dogs, monkeys and human according to the SOPs of Frontage Laboratories Inc. Briefly, cryopreserved hepatocytes for pre-clinical animals and for human (BioIVT, Westbury, NY, USA) were thawed in a 37 °C water bath with gentle shaking until ice had almost melted. […] The percentage of viable cells in the suspension was determined by Trypan blue staining method to ensure viability of ≥70 %. […]
readout: half-life at 1 μM (min)
Use min as the unit, but write only the number.

Which half-life at 1 μM is reported for this compound? Cc1cc(Cn2ncc3c(-c4cccc(C#N)c4F)nc(N)nc32)ccc1N [11o]
46.9

----------
assay: pharmacokinetics and brain/plasma ratio in mouse brain; type: in vivo, Crl:CD-1 mice; settings: male, Crl:CD-1, inhaled or intranasal; mouse brain; 3 mg/kg IN
readout: AUC(0-t) (µg·h/mL)
Use µg·h/mL as the unit, but write only the number.

Which AUC(0-t) is reported for this compound? Cc1cc(Cn2ncc3c(-c4cccc(C#N)c4F)nc(N)nc32)ccc1N [11o]
0.0142

----------
assay: pharmacokinetics and brain/plasma ratio in mouse brain; type: in vivo, Crl:CD-1 mice; conditions: male, Crl:CD-1, inhaled or intranasal; mouse brain; 1 mg/kg IN
readout: Tmax (min)
Use min as the unit, but write only the number.

Which Tmax is reported for this compound? Cc1cc(Cn2ncc3c(-c4cccc(C#N)c4F)nc(N)nc32)ccc1N [11o]
30

----------
Experiment: pharmacokinetics and bioavailability in mouse plasma
Type: in vivo, Crl:CD-1 mice
Details: male, Crl:CD-1, mouse, plasma, inhaled or intranasal, 1 mg/kg, mouse plasma; 1 mg/kg IN
Description: Male Crl:CD-1 mice of 9~10 weeks of age were purchased from Charles River Laboratories, USA and maintained at standard food and water ad libitum in temperature-controlled room with 12 h on-off light cycle before the experiment. […] Resulting plasma were stored in a freezer set to maintain −70 °C until analyzed for 11o concentration. […] Dose proportionality was assessed, and bioavailability was calculated for PO dosing.
readout: AUC(0-t) (ng·h/mL)
Use ng·h/mL as the unit, but write only the number.

Which AUC(0-t) is reported for this compound? Cc1cc(Cn2ncc3c(-c4cccc(C#N)c4F)nc(N)nc32)ccc1N [11o]
74.9

----------
test: pharmacokinetics and bioavailability in mouse plasma; format: in vivo, Crl:CD-1 mice; conditions: male, Crl:CD-1, mouse, plasma, po, 3 mg/kg, mouse plasma; 3 mg/kg PO
readout: AUC(0-t) (ng·h/mL)
Use ng·h/mL as the unit, but write only the number.

Which AUC(0-t) is reported for this molecule? Cc1cc(Cn2ncc3c(-c4cccc(C#N)c4F)nc(N)nc32)ccc1N [11o]
577

----------
assay: pharmacokinetics and brain/plasma ratio in mouse brain; assay type: in vivo, Crl:CD-1 mice; conditions: male, Crl:CD-1; mouse brain; 10 mg/kg PO
readout: Cmax (µg/mL)
Use µg/mL as the unit, but write only the number.

Which Cmax is reported for this molecule? Cc1cc(Cn2ncc3c(-c4cccc(C#N)c4F)nc(N)nc32)ccc1N [11o]
0.0481

----------
Assay: metabolic stability in cryopreserved rat hepatocytes
Details: Sprague Dawley, rat, cryopreserved hepatocytes in suspension
Description: Metabolic stability of 11o was determined in cryopreserved hepatocytes from mice, rats, dogs, monkeys and human according to the SOPs of Frontage Laboratories Inc. Briefly, cryopreserved hepatocytes for pre-clinical animals and for human (BioIVT, Westbury, NY, USA) were thawed in a 37 °C water bath with gentle shaking until ice had almost melted. […] The percentage of viable cells in the suspension was determined by Trypan blue staining method to ensure viability of ≥70 %. […]
readout: CLint scaled at 1 μM (mL/min/kg)
Use mL/min/kg as the unit, but write only the number.

Which CLint scaled at 1 μM is reported for this compound? Cc1cc(Cn2ncc3c(-c4cccc(C#N)c4F)nc(N)nc32)ccc1N [11o]
69.2

----------
Sequence of the target: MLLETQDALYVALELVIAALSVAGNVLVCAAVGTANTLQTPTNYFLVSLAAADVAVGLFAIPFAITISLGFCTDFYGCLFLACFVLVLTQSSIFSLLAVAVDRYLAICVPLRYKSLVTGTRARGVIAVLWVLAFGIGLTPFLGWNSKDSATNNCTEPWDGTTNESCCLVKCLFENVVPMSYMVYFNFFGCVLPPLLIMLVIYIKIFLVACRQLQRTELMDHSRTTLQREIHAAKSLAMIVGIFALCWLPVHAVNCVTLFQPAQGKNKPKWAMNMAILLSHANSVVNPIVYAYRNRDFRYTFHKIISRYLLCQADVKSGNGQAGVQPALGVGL
readout: pIC50
The read-out pIC50 is expressed as -log10 of concentration in moles per litre.

Which pIC50 is reported for this compound? Cc1cc(Cn2ncc3c(-c4cccc(C#N)c4F)nc(N)nc32)ccc1N [11o]
5.91

----------
test: metabolic stability in cryopreserved mouse hepatocytes; settings: CD-1, mouse, cryopreserved hepatocytes in suspension
readout: half-life at 1 μM (h)
Use h as the unit, but write only the number.

Which half-life at 1 μM is reported for this compound? Cc1cc(Cn2ncc3c(-c4cccc(C#N)c4F)nc(N)nc32)ccc1N [11o]
1.18

----------
assay: pharmacokinetics and brain/plasma ratio in mouse brain; format: in vivo, Crl:CD-1 mice; conditions: male, Crl:CD-1; mouse brain; 1 mg/kg IV
readout: AUC(0-t) (ng·h/mL)
Use ng·h/mL as the unit, but write only the number.

Which AUC(0-t) is reported for this compound? Cc1cc(Cn2ncc3c(-c4cccc(C#N)c4F)nc(N)nc32)ccc1N [11o]
246

----------
assay: pharmacokinetics and bioavailability in mouse plasma; format: in vivo, Crl:CD-1 mice; settings: male, Crl:CD-1; mouse plasma; 3 mg/kg PO
readout: half-life (h)
Use h as the unit, but write only the number.

Which half-life is reported for this compound? Cc1cc(Cn2ncc3c(-c4cccc(C#N)c4F)nc(N)nc32)ccc1N [11o]
3.66

----------
test: pharmacokinetics and bioavailability in mouse plasma; type: in vivo, Crl:CD-1 mice; conditions: male, Crl:CD-1, mouse, plasma, inhaled or intranasal, 1 mg/kg, mouse plasma; 1 mg/kg IN; read-out: Cmax
readout: Cmax (ng/mL)
Use ng/mL as the unit, but write only the number.

Which Cmax is reported for this compound? Cc1cc(Cn2ncc3c(-c4cccc(C#N)c4F)nc(N)nc32)ccc1N [11o]
23.3

----------
experiment: pharmacokinetics and brain/plasma ratio in mouse brain; format: in vivo, Crl:CD-1 mice; conditions: male, Crl:CD-1, inhaled or intranasal; mouse brain; 3 mg/kg IN
readout: Cmax (ng/mL)
Use ng/mL as the unit, but write only the number.

Which Cmax is reported for this compound? Cc1cc(Cn2ncc3c(-c4cccc(C#N)c4F)nc(N)nc32)ccc1N [11o]
15.9

----------
assay: pharmacokinetics and brain/plasma ratio in mouse brain; assay type: in vivo, Crl:CD-1 mice; details: male, Crl:CD-1, inhaled or intranasal; mouse brain; 3 mg/kg IN
readout: Tmax (min)
Use min as the unit, but write only the number.

Which Tmax is reported for this compound? Cc1cc(Cn2ncc3c(-c4cccc(C#N)c4F)nc(N)nc32)ccc1N [11o]
30

----------
test: pharmacokinetics and brain/plasma ratio in mouse brain; type: in vivo, Crl:CD-1 mice; conditions: male, Crl:CD-1; mouse brain; 3 mg/kg PO
readout: half-life (h)
Use h as the unit, but write only the number.

Which half-life is reported for this compound? Cc1cc(Cn2ncc3c(-c4cccc(C#N)c4F)nc(N)nc32)ccc1N [11o]
3.23
